Measured values drawn from patent US20180117174A1 for this set.

# TGT: T1, human claudin 18 splice variant 2 (CLDN18.2) (human)
# T1 construct: also called claudin 18 isotype 2
# PROTOCOL_SUMMARY: flow cytometry, HEK293 cells stably expressing CLDN18.2; APC-conjugated secondary antibody; binding assay 3
ENDPOINT: Max. binding [MFI] (MFI)
Numbers only, in MFI.

Query block: Recorded Max. binding [MFI] for mu mAB294 (antibody, V domains shown, Tied by its number) VH: QIQLVQSGPELKKPGETVKISCKASGYTFTNYGMNWVKQAPGKGLKWMGWINTNTGEPTYAEEFKGRFAFSLETSASTAYLQINNLKNEDTATYFCARLGFGNAMDYWGQGTSVTVSS VL: DIVMTQSPSSLTVTAGEKVTMSCKSSQSLLNSGNQKNYLTWYQQKPGQPPKLLIYWASTRESGVPDRFTGSGSGTDFTLTISSVQAEDLAVYYCQNDYSYPLTFGAGTKLELK , please?
Result block: 989
